Value source: PubChem BioAssay (Tox21)

target: Cytochrome P450 1A2 (Homo sapiens) (UniProt P05177); test: Cytochrome P450 Family 1 Subfamily A Member 2 (CYP1A2) small molecule antagonists: luciferase reporter qHTS assay (AID 1671199); conditions: P450-Glo CYP1A2 enzyme, luciferin luminescence, 1 h; series mostly up to 115 µM; further: nearly all actives have a fitted effect of over 50% in size
Sequence (P05177 whole entry, looked up): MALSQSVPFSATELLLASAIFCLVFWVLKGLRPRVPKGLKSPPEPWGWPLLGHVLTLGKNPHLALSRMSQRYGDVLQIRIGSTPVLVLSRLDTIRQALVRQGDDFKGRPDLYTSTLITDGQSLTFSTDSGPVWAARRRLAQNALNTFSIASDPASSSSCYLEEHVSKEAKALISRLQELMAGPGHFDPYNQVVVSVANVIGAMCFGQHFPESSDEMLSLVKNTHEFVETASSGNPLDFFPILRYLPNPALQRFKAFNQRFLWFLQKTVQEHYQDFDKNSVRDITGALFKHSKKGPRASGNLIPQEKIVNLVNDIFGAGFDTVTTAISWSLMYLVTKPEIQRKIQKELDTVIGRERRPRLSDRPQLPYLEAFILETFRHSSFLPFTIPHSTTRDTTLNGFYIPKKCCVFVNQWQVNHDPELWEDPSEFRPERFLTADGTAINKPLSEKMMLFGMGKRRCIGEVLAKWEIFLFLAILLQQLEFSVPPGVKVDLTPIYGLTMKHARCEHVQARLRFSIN
Inconclusive results are not listed. Calls of active or inactive are those of the source. The call rests on the fitted dose curve; in most records, active means well fitted inhibition curve with a large enough effect in the repeat runs; inconclusive means weak or mixed curves; inactive means no such curve, though single readings can be large or run the other way.
A correct response names exactly one class from 1 for active, -1 for inactive

{"compound": "CN[C@@H](C)[C@H](O)c1ccccc1", "target of assay": "Cytochrome P450 1A2 (Homo sapiens) (UniProt P05177)", "group label": -1}
{"compound": "COc1ccccc1N1CCNCC1", "target of assay": "Cytochrome P450 1A2 (Homo sapiens) (UniProt P05177)", "group label": -1}
{"compound": "O=CC=O", "target of assay": "Cytochrome P450 1A2 (Homo sapiens) (UniProt P05177)", "group label": -1}
{"compound": "CCSCc1ccccc1OC(=O)NC", "target of assay": "Cytochrome P450 1A2 (Homo sapiens) (UniProt P05177)", "group label": 1}
{"compound": "COC1CC(=C(c2cccs2)c2cccs2)C[N+](C)(C)C1 (configuration not stated)", "target of assay": "Cytochrome P450 1A2 (Homo sapiens) (UniProt P05177)", "group label": -1}

Q: Hey, what did the test say about CCc1cnc(C2=NC(C)(C(C)C)C(=O)N2)c(C(=O)O)c1 (configuration not stated) ?
A: -1

Q: Also need CC(Oc1cccc(Cl)c1)C(=O)O (configuration not stated) , thanks.
A: -1

Q: Also need CN1CC[C@]23c4c5ccc(O)c4O[C@H]2[C@@H](O)CC[C@H]3[C@H]1C5 , thanks.
A: -1

Q: Also need CCOP(=O)(SC(C)CC)N1CCSC1=O (configuration not stated) , thanks.
A: 1

Q: Also need CN(C)C(=O)Nc1cccc(OC(=O)NC(C)(C)C)c1 , thanks.
A: 1

Q: Also need CC(C)(C)CC(C)(C)c1ccc(O)cc1 , thanks.
A: 1

Q: Also need SCc1ccccc1 , thanks.
A: 1

Q: Also need NC(=S)c1c(Cl)cccc1Cl , thanks.
A: 1

---

molecular target: Nuclear receptor subfamily 1 group I member 3 (Homo sapiens) (UniProt Q14994); test: qHTS assay to identify small molecule agonists of the constitutive androstane receptor (CAR) signaling pathway (AID 1224839); details: HepG2 hCAR CYP2B6-luciferase, agonist mode, 24 h; series mostly up to 92.4 µM; further: nearly all actives have a fitted effect of over 15% in size;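 on activation: HepG2 cells stably carrying human CAR and a CYP2B6 luciferase reporter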
Sequence (Q14994 whole entry, looked up): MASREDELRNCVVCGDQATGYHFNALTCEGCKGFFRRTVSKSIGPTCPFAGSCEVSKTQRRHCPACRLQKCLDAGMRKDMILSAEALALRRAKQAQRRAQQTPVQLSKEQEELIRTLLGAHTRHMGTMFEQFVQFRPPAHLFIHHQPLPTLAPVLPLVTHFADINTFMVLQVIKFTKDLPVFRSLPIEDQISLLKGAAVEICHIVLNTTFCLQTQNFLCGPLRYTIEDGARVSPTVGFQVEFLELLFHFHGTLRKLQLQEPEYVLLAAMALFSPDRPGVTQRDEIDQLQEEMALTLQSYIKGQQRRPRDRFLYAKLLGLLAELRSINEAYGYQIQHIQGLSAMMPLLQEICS
Inconclusive results are not listed. Calls of active or inactive are those of the source. Calls follow the shape of the dose curve; as a rule, active = well fitted activation curve with a large enough effect in the repeat runs; inconclusive = weak or mixed curves; inactive = no such curve, though single readings can be large or run the other way.
A correct response names exactly one class from t = active, f = inactive

{"molecule": "NCCc1cc(O)c(O)cc1O", "group label": "f"}
{"molecule": "CC(C)c1ccc(NC(=O)N(C)C)cc1", "group label": "t"}

Q: Hey, what did the test say about CC(=O)NNc1ccccc1 ?
A: f

Q: Also need CCOC(=O)C1OC1(C)c1ccccc1 (stereo not given) , thanks.
A: f

Q: Also need c1ccc2sc(SNC3CCCCC3)nc2c1 , thanks.
A: t

Q: Also need CCC(C)(C)O , thanks.
A: f

Q: Also need CCCC1CCCCN1 (stereo not given) , thanks.
A: f

Q: Also need O=[N+]([O-])/C=C/c1ccccc1 , thanks.
A: f

Q: Also need O=S(=O)(Cl)Cl , thanks.
A: f

Q: Also need NC(=O)CF , thanks.
A: f

Q: Also need C[N+]1(CCF)[C@@H]2CC[C@H]1CC(OC(=O)C(O)(c1ccccc1)c1ccccc1)C2 (stereo not given in full) , thanks.
A: f

Q: Also need CCNC(=O)NC(=O)/C(C#N)=N/OC , thanks.
A: f
